measurement target: Secreted effector protein (Yersinia pestis)
assay notes: Inhibition of Yersinia pestis YOpH
Documented pIC50 across a set of compounds
Please treat pIC50 as minus the base-10 logarithm of the molar concentration.

Look up pIC50 for this compound: `O=C(O)C(=O)c1ccc(OCc2ccc(COc3ccc(C(=O)C(=O)O)cc3)c(C(=O)Nc3ccc(Oc4cccc(F)c4)cc3)c2)cc1`
6.66

====

measurement target: Secreted effector protein (Yersinia pestis, UniProt O68720)
Sequence (O68720 whole entry): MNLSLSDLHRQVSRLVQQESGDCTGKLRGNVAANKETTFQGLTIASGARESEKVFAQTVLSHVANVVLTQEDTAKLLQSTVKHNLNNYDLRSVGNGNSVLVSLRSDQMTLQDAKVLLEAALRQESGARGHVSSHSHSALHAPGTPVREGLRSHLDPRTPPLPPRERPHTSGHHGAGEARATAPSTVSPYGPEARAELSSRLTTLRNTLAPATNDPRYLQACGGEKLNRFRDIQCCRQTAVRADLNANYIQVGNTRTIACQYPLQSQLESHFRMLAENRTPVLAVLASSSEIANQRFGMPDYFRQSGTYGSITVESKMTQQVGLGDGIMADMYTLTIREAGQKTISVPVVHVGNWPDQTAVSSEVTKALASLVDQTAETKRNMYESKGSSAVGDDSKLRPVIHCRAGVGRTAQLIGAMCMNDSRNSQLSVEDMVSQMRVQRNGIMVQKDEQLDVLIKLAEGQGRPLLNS
assay notes: Inhibition of Yersinia pestis YOpH
Doc: threshold 200 nM (exclusive). Items with IC50 beneath it return true; others return false.

Cc1ccccc1Oc1ccc(NC(=O)c2cc(COc3ccc(C(=O)C(=O)O)cc3)ccc2COc2ccc(C(=O)C(=O)O)cc2)cc1 : false
O=C(O)C(=O)c1ccc(OCc2ccc(COc3ccc(C(=O)C(=O)O)cc3)c(C(=O)Nc3ccc(Oc4ccc(Cl)c(Cl)c4)cc3)c2)cc1 : false

Strictly below 200 nM: is that where IC50 of `COc1ccc(Oc2ccc(NC(=O)c3cc(COc4ccc(C(=O)C(=O)O)cc4)ccc3COc3ccc(C(=O)C(=O)O)cc3)cc2)cc1` sits?
false

Strictly below 200 nM: is that where IC50 of `O=C(O)C(=O)c1ccc(OCc2ccc(COc3ccc(C(=O)C(=O)O)cc3)c(C(=O)Nc3cccc(OCc4ccccc4)c3)c2)cc1` sits?
true

Strictly below 200 nM: is that where IC50 of `O=C(O)C(=O)c1ccc(OCc2ccc(COc3ccc(C(=O)C(=O)O)cc3)c(C(=O)Nc3ccc(Oc4ccc(-c5ccccc5)cc4)cc3)c2)cc1` sits?
true

Strictly below 200 nM: is that where IC50 of `Cc1ccc(Oc2ccc(NC(=O)c3cc(COc4ccc(C(=O)C(=O)O)cc4)ccc3COc3ccc(C(=O)C(=O)O)cc3)cc2)cc1` sits?
true
